Taken from PubChem BioAssay.

Experiment: binders from COS7 lysate, DM2A8 probe, primary screen, torsin A project, cell lysate, small-molecule microarray, fluorescence 635/667 (AID 1065)
Conditions: higher = more signal, COS7 lysate expressing mutant human TOR1A
Quick rule: composite z-score of at least 0.7 means true, below that means false.

Consider the worked cases shown below.
COC(=O)C(CC#Cc1ccc2c(c1)[C@]1(C(=O)N2)[C@H](C(=O)O)[C@H]2C(=O)O[C@H](c3ccccc3)[C@H](c3ccccc3)N2[C@@H]1c1ccc(OCCO)cc1)C(=O)OC	true
CO[C@H]1O[C@H](CO)[C@@H](OC(=O)Nc2ccccc2)[C@H](OC(=O)Nc2ccccc2-c2ccccc2)[C@@H]1OC(=O)Nc1ccccc1-c1ccccc1	false
COc1ccc([Si](C)(C)[C@@H]2[C@@H](CCn3cc(CCO)nn3)O[C@]3(C(=O)N(Cc4ccc(N5C(=O)c6cccc7cccc5c67)cc4)c4ccccc43)[C@H]2C)cc1	true
CC(C)(C)OC(=O)CC[C@@]1(C(=O)NCc2ccccc2)N=C(c2ccc(OCCCO)cc2)O[C@@H]1c1ccccc1CN=[N+]=[N-]	true
CC(=O)NCCCC[C@@H]1NC(=O)[C@@H]2C[C@H](C(=O)O)[C@H](c3cccc(OCCO)c3)N2C1=O	false

Please indicate if the recorded composite z-score for CC(C)N1C(=O)c2ccccc2[C@@H](C(=O)NCc2ccccc2)[C@@H]1c1ccc(CO)cc1 meets or exceeds 0.7.
false

Reported composite z-score reaches at least 0.7 for C=CCNC(=O)[C@@H]1[C@H]2C(=O)O[C@H](c3ccccc3)[C@H](c3ccccc3)N2[C@H](c2ccc(O)cc2)[C@@]12C(=O)Nc1ccccc12 ?
false
